- assayed_target: Glucose transporter (Leishmania mexicana) (UniProt O61059)
- method: ST_JUDE_LEISH: Cytotoxicity at 2uM final concentration against transgenic Leishmania Mexicana promastigotes LmGT2 that are glucose transport deficient and complemented with the L. Mexicana glucose transporter 2. Activity is measured by DNA content using SYBR green in vitro
- Type: functional
reported_metric: inhibition (%)
Field format: number, assumed %, no unit text.

N=C(N)Nc1nc(CCCCCCCCc2csc(NC(=N)N)n2)cs1 : 1.03
CCCNCc1ccc(-c2ccc(CN(C(=O)c3nn(-c4ccccc4)nc3C)C3CC3)cc2)nc1 : 0.38
CC(C)(CN1CCCC1)CN(Cc1ccc(-c2ccc(C(F)(F)F)cc2)cc1)C(=O)Cn1c(CCc2cccc(F)c2F)nc(=O)c2ccccc21 : 8.96
CC(=O)Nc1ccc2[nH]cc(C3CCN(CC4CCC(NC(=O)/C=C/c5ccc(Cl)c(Cl)c5)CC4)CC3)c2n1 (centres undefined) : -2.32
CCC(C)NC(=O)Cn1c2ncccc2c(=O)n1-c1ccc(C)cc1 (centres undefined) : 0.04
CCC(CC)n1cc2c(ccc3nc(N)nc(N)c32)n1 : -4.05
COc1ccc(-c2cccc(NC(=O)c3ccc(Cl)cc3)c2)cc1CN1CCCC1 : 5.55
COc1c(CNCCCCCCNCc2c(OC)c(OC)c3ccccc3c2OC)c(OC)c2ccccc2c1OC : 56.7

Please turn your attention to the following entry.
Query: Please look at this compound and report its inhibition: Cc1cc(CN2CCCC(OC(c3ccc(F)cc3)c3ccc(F)cc3)C2)ccc1O (centres undefined)
Result: 0.78

###

This listing pairs compounds with measured inhibition.
- assayed_target: Glucose transporter (Leishmania mexicana) (UniProt O61059)
- method: ST_JUDE_LEISH: Cytotoxicity at 2uM final concentration against transgenic Leishmania Mexicana promastigotes LmGT2 that are glucose transport deficient and complemented with the L. Mexicana glucose transporter 2. Activity is measured by DNA content using SYBR green in vitro
- Assay type: functional
Field format: number, assumed %, no unit text.

Here's what some known entries look like.
CCN(CCNC(=O)Nc1cc(C(F)(F)F)cc(C(F)(F)F)c1)c1cccc(C)c1 : 5.45
CCC(NC[C@@H](O)[C@H](Cc1ccccc1)NC(=O)c1cc(C2CCCC2)cc(N2CCCC2=O)c1)c1cccc(Cl)c1 (some centres undefined) : 4.65
CCN(CC)CCn1c(=N)n(CC(O)c2ccc(Cl)c(Cl)c2)c2ccccc21 (centres undefined) : 12.9
Cc1ccc2c(c1)C1(CC(=O)N(CCc3scnc3C)C1=O)C(=O)N2Cc1ccccc1 (centres undefined) : 3.42
CC(=O)Oc1cc(C)ccc1C1CCN(CCCCNC(=O)c2ccc(NC(=O)c3ccc(Cl)cc3)cc2)CC1 : 1.52

Query: Quote inhibition with test system Glucose transporter (Leishmania mexicana) (UniProt O61059) for `CCN1CCC(N(Cc2ccc(-c3ccc(C(F)(F)F)cc3)cc2)C(=O)Cn2c(SCc3ccc(F)cc3)nc(=O)c3c2CCC3)CC1`
Result: -2.05

###

- assayed_target: Solute carrier family 2, facilitated glucose transporter member 1 (Homo sapiens)
- method: ST_JUDE_LEISH: Cytotoxicity at 2uM final concentration against transgenic Leishmania Mexicana promastigotes LmGLUT1 that are glucose transport deficient and complemented with the human glucose transporter GLUT1. Activity is measured by DNA content using SYBR green in vitro
- Type: functional
reported_metric: inhibition (%)
Field format: number, assumed %, no unit text.

O=c1cc(NCCCNCc2ccc(C(F)(F)F)s2)[nH]c2ccccc12 : -0.41
Fc1ccc2[nH]ccc(=NN=Cc3ccccc3Cl)c2c1 : -0.64
COc1ccc(-n2nc(C(=O)NCc3ccccc3OC)c3ccccc3c2=O)cc1 : 8.08
Fc1cccc(COc2ccc(Nc3ncnc4cc(/C=C/[C@@H]5CCCN5)sc34)cc2Cl)c1 : 5.81
O=C(c1cnn(-c2ccccc2)c1C(F)(F)F)N1CCN(c2ccnc3cc(Cl)ccc23)CC1 : 1.81

Query: Please look at this molecule and report its inhibition: CC(Oc1ccc(Cl)cc1)C(=O)NCCC1CCN(CCCCCNC(=O)/C=C/c2ccc(Cl)c(Cl)c2)CC1 (stereo not drawn)
Result: 2.73

Query: Please look at this molecule and report its inhibition: CCC1CCc2cc(N)cc(-c3nc4c(c(C)nn4CC)c(=O)[nH]3)c2O1 (stereo not drawn)
Result: 5.2

Query: Please look at this molecule and report its inhibition: COc1ccc(CCC(C)N2CC(N)C(c3cn(C)c4cnccc34)C2)cc1 (stereo not drawn)
Result: 9.7

Query: Please look at this molecule and report its inhibition: `CCCCCc1ccc(N2C(N)=NC(N)=NC2(C)C)cc1`
Result: 3.51

Query: Please look at this molecule and report its inhibition: `O=C(N[C@H]1CCN(Cc2ccc(OCCCN3CCCCC3)cc2)C1)c1ccc(Cl)c(Cl)c1`
Result: 2.14

Query: Please look at this molecule and report its inhibition: `Cn1ccnc1Sc1ncccc1[N+](=O)[O-]`
Result: -2.32

Query: Please look at this molecule and report its inhibition: `CCCc1ccc(NC(=O)c2ccc(CN3CCCN(Cc4ccc(OC)cc4)CC3)cc2)cc1`
Result: -1.19

Query: Please look at this molecule and report its inhibition: `CCOC(=O)c1cc(Cl)cc(Cl)c1OCCCON1C(=N)N=C(N)NC1(C)C`
Result: 0.88

Query: Please look at this molecule and report its inhibition: `CC(C)(C)CCN1CCC(NC(=O)c2ccc(-c3cccc(C(F)(F)F)c3)s2)CC1`
Result: 1.71

Query: Please look at this molecule and report its inhibition: `CCN(CC)CCN(Cc1ccc(-c2ccc(C(F)(F)F)cc2)cc1)C(=O)Cn1c(CCc2cccc(F)c2F)cc(=O)c2c1CCCC2`
Result: 11.6

Query: Please look at this molecule and report its inhibition: O=C(C=Cc1cccc(F)c1)NC1CCC(CCN2CCc3ccc(-c4cnccn4)cc3CC2)CC1 (stereo not drawn)
Result: 14.4
